- assayed-target: Recombinant human Plk-1 (6×His) (Homo sapiens)
- Construct: 6×His; made in house; host or cells: baculovirus-infected insect cells (Hi5)
- Sequence (P53350 whole entry): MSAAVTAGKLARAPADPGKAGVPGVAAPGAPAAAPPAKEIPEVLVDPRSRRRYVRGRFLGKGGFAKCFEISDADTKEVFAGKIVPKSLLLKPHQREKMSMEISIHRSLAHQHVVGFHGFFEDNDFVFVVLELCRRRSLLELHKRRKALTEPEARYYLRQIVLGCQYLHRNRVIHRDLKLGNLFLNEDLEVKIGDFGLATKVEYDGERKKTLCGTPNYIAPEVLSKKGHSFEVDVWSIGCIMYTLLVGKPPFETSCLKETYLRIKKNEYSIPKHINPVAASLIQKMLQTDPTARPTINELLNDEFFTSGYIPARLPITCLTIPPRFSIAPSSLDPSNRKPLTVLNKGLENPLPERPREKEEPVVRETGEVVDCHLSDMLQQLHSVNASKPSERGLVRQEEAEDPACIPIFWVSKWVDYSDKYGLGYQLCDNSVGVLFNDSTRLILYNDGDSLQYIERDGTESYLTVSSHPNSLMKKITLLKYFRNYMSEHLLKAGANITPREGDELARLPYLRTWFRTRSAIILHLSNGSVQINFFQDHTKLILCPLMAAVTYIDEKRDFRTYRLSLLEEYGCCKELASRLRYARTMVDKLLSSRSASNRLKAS
- test: PLK enzyme assay (33P-γ-ATP incorporation in biotinylated casein, SPA)
- Assay type: biochemical
- experimental-conditions: recombinant human Plk-1, casein substrate, 0.5 μmol of ATP, 90 minutes at room temperature; read-out: PLK-1 IC50 [nM] Inhibition
# key: entry, value: IC50
Express it in nM; write the number only.

What value of IC50 has been reported for the following compound? "CCn1c(=C(C#N)C(=O)NCC(F)(F)F)sc(=Cc2nc[nH]c2C)c1=O"
230

Try the compound "CCn1c(=C(C#N)C(=O)NCC#N)sc(=Cc2nc[nH]c2C)c1=O"
250

* * *

- System: human MaTu breast tumour cells
- test: Proliferation assay (crystal violet staining)
- Format: cell-based
- experimental-conditions: 96 h, incubated for 4 days with test substance, read-out: Inhibition of the Tumour Cell Proliferation (MaTu) IC50
# key: entry, value: IC50
Express it in µM; write the number only.

{"columns": ["compound", "units-label", "numeric-readout"],
 "data": [
  ["CCn1c(=C(C#N)C(=O)NCC(F)(F)F)sc(=Cc2nc[nH]c2C)c1=O", "µM", 4.2]
]}

Continue with the next molecule.
What value of IC50 has been reported for the following molecule? "CCn1c(=C(C#N)C(=O)NCC#N)sc(=Cc2nc[nH]c2C)c1=O"
3.6
